# PROTOCOL SUMMARY: Bioavailability test in vivo in cynomolgus monkey (pharmacokinetics, IV and PO)
# PROTOCOL CONDITIONS: male, cynomolgus monkey, plasma; cynomolgus monkeys, po, 20 mg/kg, fasted
ASSAY READOUT: Cmax (µg/mL)

P = C=CCn1c(=O)c2cnc(Nc3ccc(N4CCN(C)CC4)cc3)nc2n1-c1cccc(C(C)(C)O)n1 [Control 1, reference compound]
Q = C=CCn1c(=O)c2cnc(Nc3ccc(C4CCC(N5CCC5)CC4)cc3)nc2n1-c1cccc(C(C)(C)O)n1 (single isomer, unassigned)
Ask | Of P and Q , whose reported Cmax is numerically smaller? Lab log: write the label of the selected item as the result.
Reply | Q
(Q: 0.721 µg/mL, P: 1.63 µg/mL)
